System: PSMA^+ PC-3 PIP tumors
measurement-description: MicroPET/CT imaging of mice transplanted with prostate cancer cell lines
Type: in vivo, nude mouse
test-conditions: 10 min after injection
endpoint: intake of mouse organ: Bladder (% ID/g)

Use these answered entries as a reference point.
{"compound": "O=C(O)CCC(NC(=O)NC(CCCCN(CC(=O)O)C(=O)COCCOCCNC(=O)CN1CCN2CCN3CCN(CC1)CC(=O)[O][68Ga]([O]C(=O)C2)[O]C(=O)C3)C(=O)O)C(=O)O (stereo not shown) [[^68Ga]1e]", "endpoint": "intake of mouse organ: Bladder", "number": 19.37}
{"compound": "Cc1ccc(CCCC(=O)NCCCCC(NC(=O)CN2CCN3CCN4CCN(CC2)CC(=O)[O][68Ga]([O]C(=O)C3)[O]C(=O)C4)C(=O)NCCOCCOCC(=O)N(CCCCC(NC(=O)NC(CCC(=O)O)C(=O)O)C(=O)O)CC(=O)O)cc1 (stereo not shown) [[^68Ga]1g]", "endpoint": "intake of mouse organ: Bladder", "number": 2.28}

A = O=C(O)CCC(NC(=O)NC(CCCCN(CC(=O)O)C(=O)COCCNC(=O)C(CCCCNC(=O)CCCc1ccc(I)cc1)NC(=O)CN1CCN2CCN3CCN(CC1)CC(=O)[O][68Ga]([O]C(=O)C2)[O]C(=O)C3)C(=O)O)C(=O)O (stereo not shown) [[^68Ga]1k]
B = O=C(O)CCC(NC(=O)NC(CCCCN(CC(=O)O)C(=O)COCCOCCNC(=O)C(CCCCNC(=O)CCCc1ccc(I)cc1)NC(=O)CN1CCN2CCN3CCN(CC1)CC(=O)[O][68Ga]([O]C(=O)C2)[O]C(=O)C3)C(=O)O)C(=O)O (stereo not shown) [[^68Ga]1h]
Which is greater in intake of mouse organ: Bladder, the first item A or the second item B ? Record your answer as the label of the chosen record.
A

----------
System: PSMA^+ PC-3 PIP tumors
measurement-description: MicroPET/CT imaging of mice transplanted with prostate cancer cell lines
Assay type: in vivo, nude mouse
test-conditions: 20 min after injection
endpoint: intake of mouse organ: Muscle (% ID/g)

Use these answered entries as a reference point.
{"compound": "Cc1ccc(CCCC(=O)NCCCCC(NC(=O)CN2CCN3CCN4CCN(CC2)CC(=O)[O][68Ga]([O]C(=O)C3)[O]C(=O)C4)C(=O)NCCOCCOCC(=O)N(CCCCC(NC(=O)NC(CCC(=O)O)C(=O)O)C(=O)O)CC(=O)O)cc1 (stereo not shown) [[^68Ga]1g]", "number": 1.88}
{"compound": "O=C(O)CCC(NC(=O)NC(CCCCN(CC(=O)O)C(=O)COCCNC(=O)C(CCCCNC(=O)CCCc1ccc(I)cc1)NC(=O)CN1CCN2CCN3CCN(CC1)CC(=O)[O][68Ga]([O]C(=O)C2)[O]C(=O)C3)C(=O)O)C(=O)O (stereo not shown) [[^68Ga]1k]", "number": 2.91}

a = O=C(O)CCC(NC(=O)NC(CCCCN(CC(=O)O)C(=O)COCCOCCNC(=O)C(CCCCNC(=O)CCCc1ccc(I)cc1)NC(=O)CN1CCN2CCN3CCN(CC1)CC(=O)[O][68Ga]([O]C(=O)C2)[O]C(=O)C3)C(=O)O)C(=O)O (stereo not shown) [[^68Ga]1h]
b = O=C(O)CCC(NC(=O)NC(CCCCN(CC(=O)O)C(=O)COCCOCCNC(=O)CN1CCN2CCN3CCN(CC1)CC(=O)[O][68Ga]([O]C(=O)C2)[O]C(=O)C3)C(=O)O)C(=O)O (stereo not shown) [[^68Ga]1e]
Identify the entry with the smaller intake of mouse organ: Muscle: a or b . Record your answer as the label of the chosen record.
b
(b: 1.38 % ID/g, a: 2.97 % ID/g)
